Please provide measured Fik Kinase %Inhibition for the entries that follow.
Assay System: FLK-1 receptor (Mus musculus, UniProt P35918)
Construct: expressed in transfected cells; host or cells: NIH3T3 C7#3
Sequence (P35918 20-1345): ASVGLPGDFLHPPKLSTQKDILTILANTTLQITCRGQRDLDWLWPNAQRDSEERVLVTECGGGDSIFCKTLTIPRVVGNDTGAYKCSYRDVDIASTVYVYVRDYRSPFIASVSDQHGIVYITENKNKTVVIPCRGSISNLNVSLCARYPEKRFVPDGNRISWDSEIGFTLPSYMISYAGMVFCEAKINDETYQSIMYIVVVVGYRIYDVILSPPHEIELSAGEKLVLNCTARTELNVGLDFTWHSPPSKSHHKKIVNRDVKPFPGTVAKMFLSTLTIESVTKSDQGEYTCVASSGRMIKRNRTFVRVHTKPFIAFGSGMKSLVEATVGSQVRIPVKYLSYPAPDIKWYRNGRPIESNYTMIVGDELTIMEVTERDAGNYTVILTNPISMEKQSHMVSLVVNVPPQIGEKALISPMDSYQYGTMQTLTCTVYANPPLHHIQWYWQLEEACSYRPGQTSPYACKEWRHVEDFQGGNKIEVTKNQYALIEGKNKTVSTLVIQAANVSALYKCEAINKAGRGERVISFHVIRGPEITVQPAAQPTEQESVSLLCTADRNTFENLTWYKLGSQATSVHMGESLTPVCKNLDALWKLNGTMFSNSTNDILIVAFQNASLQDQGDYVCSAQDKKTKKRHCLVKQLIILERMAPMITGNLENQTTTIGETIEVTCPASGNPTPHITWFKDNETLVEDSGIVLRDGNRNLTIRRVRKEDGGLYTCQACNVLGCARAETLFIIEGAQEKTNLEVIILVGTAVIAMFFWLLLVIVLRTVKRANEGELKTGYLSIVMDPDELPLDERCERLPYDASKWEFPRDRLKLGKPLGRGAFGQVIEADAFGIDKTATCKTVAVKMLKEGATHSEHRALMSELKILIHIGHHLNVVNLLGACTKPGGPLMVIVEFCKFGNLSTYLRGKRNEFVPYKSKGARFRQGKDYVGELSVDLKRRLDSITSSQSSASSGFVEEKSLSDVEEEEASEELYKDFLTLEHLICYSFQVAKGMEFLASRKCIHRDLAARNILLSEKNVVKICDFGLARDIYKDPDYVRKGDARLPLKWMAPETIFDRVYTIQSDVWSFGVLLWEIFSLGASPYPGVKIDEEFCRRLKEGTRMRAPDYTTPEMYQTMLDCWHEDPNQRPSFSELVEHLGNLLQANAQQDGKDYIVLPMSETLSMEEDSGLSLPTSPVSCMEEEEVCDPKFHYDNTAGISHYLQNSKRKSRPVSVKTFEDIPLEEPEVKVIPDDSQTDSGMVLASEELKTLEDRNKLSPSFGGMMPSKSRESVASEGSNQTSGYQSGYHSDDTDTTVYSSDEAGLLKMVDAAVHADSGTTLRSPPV
Assay Summary: FLK-1 ELISA (kinase activity of the FLK-1 receptor in FLK-1/NIH3T3 cells, VEGF stimulated)
Type: cell-based
Hi! Could you send only the number? It should be in %, unit omitted.

Give its Fik Kinase %Inhibition value. Item: O=C1Nc2ccc(CCCl)cc2C1=Cc1cc([N+](=O)[O-])cc(CCl)c1O 18.9

Queued: Cn1cccc1C=C1C(=O)Nc2ccc(S(=O)(=O)Nc3ccc(C(F)(F)F)cc3)cc21 6.1

Subsequent entry: CNS(=O)(=O)c1ccc2c(c1)C(=Cc1ccc(N3CCOCC3)cc1)C(=O)N2 1.8

Cool, now O=C1Nc2ccc(I)cc2C1=Cc1cc(O)ccc1O 3.9

Okay, and COc1c(Cl)cc(C=C2C(=O)Nc3ccc(I)cc32)cc1C(C)(C)C ? 14.0

O=C1Nc2ccc(I)cc2C1=Cc1cccc(C(F)(F)F)c1F , same question. 31.4

Same lookup for O=C1Nc2ccc(CCCl)cc2C1=Cc1cc2ccccc2o1 , please. -1.9

Another compound to check: O=C1Nc2ccc(S(=O)(=O)N3CCOCC3)cc2C1=Cc1ccc(Br)o1 8.9

Then this compound: COc1ccc(C=C2C(=O)Nc3c(Br)cc(Br)cc32)c2ccccc12 4.7

* * *

Assay System: EGFR (Homo sapiens)
Construct: Add 7 ug A431 cell lysate per well (EGFR source); endogenous in cells; host or cells: A431
Assay Summary: EGFR ELISA assay (in vitro kinase activity, EGFR captured from A431 cell lysate)
Format: biochemical
Parameters: concentration or dose not given beside the values
Please respond with reported Biochem EGFR %Inhibition for every item in the list.

Can you share its Biochem EGFR %Inhibition? I mean this compound: COc1cc(OC)c(C=C2C(=O)Nc3ccc(S(=O)(=O)N4CCOCC4)cc32)c(OC)c1 -26.0%

Another compound to look at: O=C1Nc2ccc(S(=O)(=O)Nc3ccc(C(F)(F)F)cc3)cc2C1=Cc1cc([N+](=O)[O-])ccc1O 31.3%

Same thing, different compound: O=C1Nc2c(Br)cc(Br)cc2C1=Cc1cc(O)c2c(c1O)CCCC2 88.7%

What do we get for CCN(CC)c1ccc(C=C2C(=O)Nc3ccc(Br)c(C)c32)cc1 ? -28.5%

Please answer likewise for Cc1cn(C)cc1C=C1C(=O)Nc2ccc(CCCl)cc21 -37.5%

Follow-up entry: O=C1Nc2c(Br)cc(Br)cc2C1=Cc1ccc(Br)s1 12.5%

Then this compound: O=CN1CCN(c2ccc(C=C3C(=O)Nc4ccc(S(=O)(=O)Nc5ccc(C(F)(F)F)cc5)cc43)cc2)CC1 12.5%

Entry to check: CNS(=O)(=O)c1ccc2c(c1)C(=Cc1cc(Cl)c(OCc3ccccc3)c(C(C)(C)C)c1)C(=O)N2 -16.6%

Subsequent entry: CNS(=O)(=O)c1ccc2c(c1)C(=Cc1c(O)cccc1OC)C(=O)N2 3.5%

O=C1Nc2ccc(I)cc2C1=Cc1c[nH]cn1 ? 43.0%

Next record, please: CC(C)c1cc(C=C2C(=O)Nc3c(Br)cc(Br)cc32)cc(C(C)C)c1Oc1ccccc1 -10.6%

Also COc1c(C(C)(C)C)cc(C=C2C(=O)Nc3ccc(S(=O)(=O)N4CCOCC4)cc32)cc1C(C)(C)C , if possible. 76.3%

Next record, please: COc1c(O)ccc(C=C2C(=O)Nc3ccc(S(=O)(=O)N4CCOCC4)cc32)c1[N+](=O)[O-] 0.6%

For COc1cccc(C=C2C(=O)Nc3c(Br)cc(Br)cc32)c1O then? 38.5%

Next: O=C1Nc2ccc(S(=O)(=O)Nc3ccc(C(F)(F)F)cc3)cc2C1=Cc1cc(C(F)(F)F)ccc1F 5.1%

Another compound to check: O=C1Nc2c(Br)cc(Br)cc2C1=Cc1c(F)cc(F)cc1F 11.3%

# iterate: CCc1ccc(C=C2C(=O)Nc3ccc(CCCl)cc32)o1 -10.6%

* * *

Assay System: FLK-1 receptor (Mus musculus)
Construct: expressed in transfected cells; host or cells: NIH3T3 C7#3
Assay Summary: FLK-1 ELISA (kinase activity of the FLK-1 receptor in FLK-1/NIH3T3 cells, VEGF stimulated)
Format: cell-based
Description: An enzyme linked immunosorbent assay (ELISA) was conducted to measure the catalytic activity of the FLK-1 receptor and more specifically, the inhibition or activation of indolinone compounds on the catalytic activity of the FLK-1 receptor. Specifically, the following assay was conducted to measure catalytic activity of the FLK-1 receptor in FLK-1/NIH3T3 cells. […]
Result Type: Fik Kinase %Inhibition

Enter reported Fik Kinase %Inhibition observed with FLK-1 receptor (Mus musculus) for COc1ccc2[nH]cc(C=C3C(=O)Nc4ccc(Br)c(C)c43)c2c1 15.1%

Similarly, O=C1Nc2ccc(S(=O)(=O)Nc3ccc(C(F)(F)F)cc3)cc2C1=Cc1ccc(C(=O)O)cc1 ? 19.2%

Queued: Cc1c(Br)ccc2c1C(=Cc1cc(Cl)ccc1O)C(=O)N2 -37.6%

Consider next the molecule COc1ccc(C=C2C(=O)Nc3ccc(S(=O)(=O)Nc4ccc(C(F)(F)F)cc4)cc32)c(OC)c1 in the same way. 31.2%

* * *

What PDGF Kinase %Inhibition was measured for each of the following?
Assay System: PDGF-R (Homo sapiens, UniProt P09619)
Sequence (P09619 33-1106, species assumed): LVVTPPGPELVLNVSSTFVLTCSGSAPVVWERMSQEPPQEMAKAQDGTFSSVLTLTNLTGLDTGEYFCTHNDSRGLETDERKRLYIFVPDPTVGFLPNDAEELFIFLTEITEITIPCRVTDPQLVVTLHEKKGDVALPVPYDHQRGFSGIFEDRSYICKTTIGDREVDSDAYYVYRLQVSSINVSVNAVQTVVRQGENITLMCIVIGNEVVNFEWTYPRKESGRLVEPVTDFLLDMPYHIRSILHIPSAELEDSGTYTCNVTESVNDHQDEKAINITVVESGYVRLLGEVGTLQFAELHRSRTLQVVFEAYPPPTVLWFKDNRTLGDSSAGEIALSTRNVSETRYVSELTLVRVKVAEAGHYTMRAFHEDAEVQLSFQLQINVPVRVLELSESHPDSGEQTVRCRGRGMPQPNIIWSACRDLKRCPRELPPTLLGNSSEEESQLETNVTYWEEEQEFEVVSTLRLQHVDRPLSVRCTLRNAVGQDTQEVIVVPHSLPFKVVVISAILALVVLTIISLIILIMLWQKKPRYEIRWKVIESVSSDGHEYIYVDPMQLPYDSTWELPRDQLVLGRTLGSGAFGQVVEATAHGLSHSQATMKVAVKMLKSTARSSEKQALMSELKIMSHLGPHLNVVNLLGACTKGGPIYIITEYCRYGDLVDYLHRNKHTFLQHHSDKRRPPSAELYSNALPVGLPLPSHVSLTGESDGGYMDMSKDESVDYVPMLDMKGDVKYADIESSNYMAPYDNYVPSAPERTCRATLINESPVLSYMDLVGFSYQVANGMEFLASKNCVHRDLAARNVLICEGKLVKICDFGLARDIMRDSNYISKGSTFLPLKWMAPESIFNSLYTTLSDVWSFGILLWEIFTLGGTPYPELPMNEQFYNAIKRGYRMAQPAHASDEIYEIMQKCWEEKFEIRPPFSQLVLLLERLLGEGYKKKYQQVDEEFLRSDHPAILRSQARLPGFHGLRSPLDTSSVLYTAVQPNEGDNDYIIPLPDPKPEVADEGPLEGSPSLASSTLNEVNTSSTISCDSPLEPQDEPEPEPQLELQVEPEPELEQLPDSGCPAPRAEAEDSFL
Assay Summary: PDGF-R ELISA
Format: cell-based
Text: A PDGF-R ELISA is described in International Patent Publication No. WO 96/40116, published December 19, 1996 by Tang et al.
Note: unit % is implicit; provide only the numeric part.

What PDGF Kinase %Inhibition appears in the records for this molecule with PDGF-R (Homo sapiens, UniProt P09619)? O=C1Nc2ccc(I)cc2C1=Cc1cc(Cl)ccc1O 14.4

How about this molecule: COc1c([N+](=O)[O-])cc(C=C2C(=O)Nc3ccc(S(=O)(=O)N4CCOCC4)cc32)cc1C(C)(C)C 24.5

O=C1Nc2ccc(I)cc2C1=Cc1ccc(C(F)(F)F)cc1 , same question. 25.5

Next record, please: O=C1Nc2ccc(S(=O)(=O)N3CCOCC3)cc2C1=Cc1sccc1Br -15.1

For O=C1Nc2ccc(S(=O)(=O)Nc3ccc(C(F)(F)F)cc3)cc2C1=Cc1cc([N+](=O)[O-])ccc1O then? 10.3

How about CC(C)(C)c1cc(C=C2C(=O)Nc3c(Br)cc(Br)cc32)c(O)c(C(C)(C)C)c1 ? 41.5

What do you have for COc1ccc(C=C2C(=O)Nc3ccc(S(=O)(=O)Nc4ccc(C(F)(F)F)cc4)cc32)c(O)c1 ? 22.1

How about this molecule: COc1ccc(C=C2C(=O)Nc3c(Br)cc(Br)cc32)c2ccccc12 1.9

* * *

Assay System: EGFR (Homo sapiens, UniProt P00533)
Construct: Add 7 ug A431 cell lysate per well (EGFR source); endogenous in cells; host or cells: A431
Sequence (P00533 25-1210): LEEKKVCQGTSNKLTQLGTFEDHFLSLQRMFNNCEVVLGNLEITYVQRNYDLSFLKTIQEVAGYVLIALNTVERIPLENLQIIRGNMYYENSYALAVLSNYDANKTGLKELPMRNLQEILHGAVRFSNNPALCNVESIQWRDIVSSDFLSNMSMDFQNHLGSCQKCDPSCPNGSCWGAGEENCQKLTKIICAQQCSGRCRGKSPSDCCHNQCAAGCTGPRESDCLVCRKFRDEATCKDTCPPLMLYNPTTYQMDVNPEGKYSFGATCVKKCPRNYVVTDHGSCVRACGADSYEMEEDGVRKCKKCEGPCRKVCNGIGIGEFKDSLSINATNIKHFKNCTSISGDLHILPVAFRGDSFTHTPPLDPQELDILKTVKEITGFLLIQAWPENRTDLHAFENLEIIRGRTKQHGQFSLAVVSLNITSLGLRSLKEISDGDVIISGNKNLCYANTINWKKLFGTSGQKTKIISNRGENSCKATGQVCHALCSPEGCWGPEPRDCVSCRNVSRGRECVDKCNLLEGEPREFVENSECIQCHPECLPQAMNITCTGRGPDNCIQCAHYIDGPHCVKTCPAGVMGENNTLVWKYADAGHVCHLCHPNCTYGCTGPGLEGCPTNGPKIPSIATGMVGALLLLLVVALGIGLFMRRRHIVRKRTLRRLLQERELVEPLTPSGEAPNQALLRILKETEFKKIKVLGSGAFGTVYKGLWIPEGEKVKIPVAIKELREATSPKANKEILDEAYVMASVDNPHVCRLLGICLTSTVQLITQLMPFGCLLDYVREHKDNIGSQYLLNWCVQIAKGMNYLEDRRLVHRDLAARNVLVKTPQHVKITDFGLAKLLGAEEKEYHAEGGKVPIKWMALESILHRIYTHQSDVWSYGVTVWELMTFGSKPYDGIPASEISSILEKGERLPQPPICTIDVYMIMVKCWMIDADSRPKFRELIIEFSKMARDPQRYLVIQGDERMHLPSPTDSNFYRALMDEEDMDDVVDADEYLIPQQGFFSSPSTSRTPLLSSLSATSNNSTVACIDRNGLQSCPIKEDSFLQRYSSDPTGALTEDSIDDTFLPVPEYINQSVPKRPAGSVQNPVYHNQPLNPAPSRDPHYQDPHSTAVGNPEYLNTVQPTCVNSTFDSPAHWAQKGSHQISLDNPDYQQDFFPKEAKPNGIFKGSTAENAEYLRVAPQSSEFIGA
Assay Summary: EGFR ELISA assay (in vitro kinase activity, EGFR captured from A431 cell lysate)
Format: biochemical
Parameters: concentration or dose not given beside the values
Result Type: Biochem EGFR %Inhibition (%)
Please respond with the number in % and leave the unit unwritten.

Record lookup: for EGFR (Homo sapiens, UniProt P00533), what Biochem EGFR %Inhibition belongs to COc1c(I)cc(C=C2C(=O)Nc3ccc(Br)c(C)c32)cc1C(C)(C)C [10732/C11] ? -5.0

Try O=C1Nc2ccc(S(=O)(=O)Nc3ccc(C(F)(F)F)cc3)cc2C1=Cc1ccc(C(F)(F)F)cc1 [10722/E11] next. 4.2

Ok, now O=C1Nc2c(Br)cc(Br)cc2C1=Cc1ccc[nH]1 [10717/A09] 37.7

Okay, and Cc1c(Br)ccc2c1C(=CC1C=CCCC1)C(=O)N2 (stereo not drawn) [10729/C11] ? 35.9

Cool, now Cc1cc(C)c(C=C2C(=O)Nc3ccc(S(=O)(=O)Nc4ccc(C(F)(F)F)cc4)cc32)[nH]1 [10721/E08] 29.8

Try the compound Cc1c(Br)ccc2c1C(=Cc1cccnc1)C(=O)N2 [10729/C08] 25.4

Also CNS(=O)(=O)c1ccc2c(c1)C(=Cc1ccc(SC)cc1)C(=O)N2 [10729/D04] , if possible. 18.8

Follow-up entry: Cc1c(Br)ccc2c1C(=Cc1ccc([N+](=O)[O-])o1)C(=O)N2 [10718/C11] -0.2

Further, for CN(C)c1ccc(C=C2C(=O)Nc3ccc(S(=O)(=O)N4CCOCC4)cc32)cc1 [10719/F08] ? 90.9

O=C1Nc2ccc(I)cc2C1=Cc1cc(C(F)(F)F)ccc1F [10728/B08] ? 34.7

Try this compound next: Cc1[nH]c(C=C2C(=O)Nc3ccc(S(=O)(=O)N4CCOCC4)cc32)c(Br)c1Br [10717/F11] 91.2

And what about the compound COc1ccc2[nH]cc(C=C3C(=O)Nc4ccc(Br)c(C)c43)c2c1 [10731/C09] ? 16.8

Cool, now COc1ccc2ccccc2c1C=C1C(=O)Nc2ccc(Br)c(C)c21 [10729/C02] 16.9

Try this compound too: O=C1Nc2c(Br)cc(Br)cc2C1=Cc1cc(Cl)cc(Cl)c1O [10734/A03] 18.5

What about this compound? COc1ccc(Br)c(C=C2C(=O)Nc3ccc(S(=O)(=O)N4CCOCC4)cc32)c1O [10725/F03] -36.2

Record: CCOC(=O)c1c(C)[nH]c(C=C2C(=O)Nc3ccc(I)cc32)c1C [10718/B02] 24.9

Please answer likewise for O=C1Nc2ccc(S(=O)(=O)Nc3ccc(C(F)(F)F)cc3)cc2C1=Cc1ccc(F)cc1F [10722/E06] 7.6

Also, O=C1Nc2ccc(I)cc2C1=Cc1cc(Cl)cc(Br)c1O [10727/B04] please. 47.4

Provenance of the data: patent EP1247803A2
